Test system: Mycobacterium avium
Experiment: Growth index for Mycobacterium avium sub species paratuberculosis was measured relative to mycobactin J
Format: functional
For each record, write down the corresponding Growth Index.
Reply with the value as a number alone.

Problem: Hello, I am looking for reported Growth Index with Mycobacterium avium for CCCCCCCCCCCCC/C=C/C(=O)N(O)CCCC[C@H](NC(=O)[C@@H]1CCC(c2ccccc2O)=N1)C(=O)OC(C(C)C)C(C)C(=O)N[C@H]1CCCCN(O)C1=O (stereo partly specified) . Could you help?
Solution: 1

Problem: What would you report for CCCCC/C=C/C(=O)N(O)CCCCCNC(=O)CC1(O)CC(=O)N(CCCCCN(O)C(=O)/C=C/CCCCC)C1=O (stereo unspecified) ?
Solution: 1.17

Problem: What would you report for `CCCCC/C=C/C(=O)N(O)CCCCCCNC(=O)CC(O)(CC(=O)NCCCCCCN(O)C(=O)/C=C/CCCCC)C(=O)O` ?
Solution: 0.95

Problem: What would you report for `CC(=O)N(O)CCCCCNC(=O)CCC(=O)N(O)CCCCCNC(=O)CCC(=O)N(O)CCCCCN` ?
Solution: 1.09

Problem: What would you report for CCCCC/C=C/C(=O)N(O)CCCCCCNC(=O)CC1(O)CC(=O)N(CCCCCCN(O)C(=O)/C=C/CCCCC)C1=O (stereo unspecified) ?
Solution: 1.01

Problem: What would you report for `CCCCC/C=C/C(=O)N(O)CCCCCNC(=O)CC(O)(CC(=O)NCCCCCN(O)C(=O)/C=C/CCCCC)C(=O)O` ?
Solution: 0.96

This collection of values is drawn from ChEMBL document CHEMBL1138766.
